Assay: Stability of compound 13 prodrugs in human liver microsomes (HLM)
Assay type: in vitro ADME
Conditions: pH 7.4; 0.500 mg/mL human liver microsomes, no cofactors, prodrug 1.00 μM; read-out: Estimated half-life (minutes) (rounded to nearest integer value)
Property Measured: half-life at 1 μM (min)

- Smiles Notation: "COCC(=O)OCOC(=O)c1c(F)ccc2c1OB(O)[C@@H]1C[C@H]21"
  half-life at 1 μM, min: 4
- Smiles Notation: "CC(=O)OCOC(=O)c1c(F)ccc2c1OB(O)[C@@H]1C[C@H]21"
  half-life at 1 μM, min: 15
- Smiles Notation: "CCCC(=O)OCOC(=O)c1c(F)ccc2c1OB(O)[C@@H]1C[C@H]21"
  half-life at 1 μM, min: 10

P = CC(=O)OCC(=O)OCOC(=O)c1c(F)ccc2c1OB(O)[C@@H]1C[C@H]21
Q = O=C(OCOC(=O)C1CC1)c1c(F)ccc2c1OB(O)[C@@H]1C[C@H]21
# return whichever of P and Q has the smaller half-life at 1 μM // output: label of the selected item
P
(P: 4 min, Q: 14 min)

* * *

Listing of recorded Ki by entry.
Biological target: UniProt:P05364
Sequence (P05364 21-381): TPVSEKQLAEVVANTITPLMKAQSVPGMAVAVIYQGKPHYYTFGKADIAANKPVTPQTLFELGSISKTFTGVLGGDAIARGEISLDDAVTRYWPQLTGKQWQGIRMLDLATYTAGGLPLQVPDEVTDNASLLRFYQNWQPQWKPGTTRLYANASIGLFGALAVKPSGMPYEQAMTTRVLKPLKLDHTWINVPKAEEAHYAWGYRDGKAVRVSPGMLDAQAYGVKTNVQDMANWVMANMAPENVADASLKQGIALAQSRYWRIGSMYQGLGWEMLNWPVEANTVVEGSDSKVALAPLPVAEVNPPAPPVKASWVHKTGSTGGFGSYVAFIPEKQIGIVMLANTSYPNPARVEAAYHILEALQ
Test: biochemical
Conditions: nitrocefin reporter substrate; 10 min preincubation at room temperature; read-out: Ki (P99, NCF)

- Compound: "COc1ccc2c(c1C(=O)O)OB(O)[C@H]1C[C@@H]21"
  Ki: "< 100 nM"

Note down Ki recorded for "COc1ccc2c(c1C(=O)O)OB(O)CC21CC1"
< 100 nM

Note down Ki recorded for COc1ccc2c(c1C(=O)O)OB(O)C1C2C1(F)F (stereo not drawn)
100 to 1000 nM

Note down Ki recorded for "O=C(O)c1c(F)ccc2c1OB(O)CC21CC1"
< 100 nM

Note down Ki recorded for "O=C(O)c1nccc2c1OB(O)[C@@H]1C[C@H]21"
100 to 1000 nM

Note down Ki recorded for O=C(O)c1c(F)ccc2c1OB(O)C1CC21 (stereo not drawn)
< 100 nM

Note down Ki recorded for "O=C(O)c1cccc2c1OB(O)[C@H]1C[C@@H]21"
100 to 1000 nM

Note down Ki recorded for "COc1ccc2c(c1C(=O)O)OB(O)[C@@H]1COC[C@H]21"
< 100 nM

* * *

Tested on: PAM1032/KPC-2 (overexpressed MexAB-OprM)
Experiment: Biapenem potentiation (MPC64) in PAM1032/KPC-2
Format: cell-based, Pseudomonas aeruginosa
Set-up: unit not given here
Conditions: BLI potency to decrease biapenem MIC 64-fold, from 32 to 0.5 μg/ml; efflux proficient strain
Property Measured: PAM1032/KPC-2 Biapenem MPC64
Response field accepts a number only; no unit should be typed.

The cases that follow already have their PAM1032/KPC-2 Biapenem MPC64 on record.
- Compound: "O=C(O)c1c(F)ccc2c1OB(O)C1CC21 (centres unmarked) [Compound 4]"
  PAM1032/KPC-2 Biapenem MPC64: 2.5
- Compound: "O=C(O)c1c(F)c(F)cc2c1OB(O)C1CC21 (centres unmarked) [Compound 19]"
  PAM1032/KPC-2 Biapenem MPC64: 5
- Compound: "O=C(O)c1c(OCCF)ccc2c1OB(O)C1CC21 (centres unmarked) [Compound 17]"
  PAM1032/KPC-2 Biapenem MPC64: 20
- Compound: "O=C(O)c1c(F)ccc2c1OB(O)[C@H]1C[C@@H]21 [Compound 12]"
  PAM1032/KPC-2 Biapenem MPC64: 2.5

Please examine the following record next.
Note down PAM1032/KPC-2 Biapenem MPC64 recorded for COc1ccc2c(c1C(=O)O)OB(O)[C@@H]1COC[C@H]21 [Compound 23]
20

* * *

Test system: PAM1032/KPC-2 (overexpressed MexAB-OprM)
Test: Biapenem potentiation (MPC64) in PAM1032/KPC-2
Assay type: cell-based, Pseudomonas aeruginosa
Set-up: unit not given here
Settings: BLI potency to decrease biapenem MIC 64-fold, from 32 to 0.5 μg/ml; efflux proficient strain
Procedure: Efflux of BLIs from Pseudomonas aeruginosa by the MexAB-OprM efflux pump was also evaluated. […] Potency of BLIs to potentiate biapenem in these strains was determined. […] The ratio of MPC64 values for each BLI in PAM1032/KPC-2 (efflux proficient) and PAM1154/KPC-2 (efflux deficient) was determined to generate the Efflux Index (EI) as shown in Table 8.
Listing of recorded PAM1032/KPC-2 Biapenem MPC64 by entry.
Response field accepts a number only; no unit should be typed.

The cases that follow already have their PAM1032/KPC-2 Biapenem MPC64 on record.
- Compound: "O=C(O)c1c(F)ccc2c1OB(O)CC21CC1"
  Property Measured: "PAM1032/KPC-2 Biapenem MPC64"
  Endpoint Value: 5
- Compound: "O=C(O)c1c(F)ccc2c1OB(O)[C@@H]1C[C@H]21"
  Property Measured: "PAM1032/KPC-2 Biapenem MPC64"
  Endpoint Value: 2.5
- Compound: "O=C(O)c1cccc2c1OB(O)CC21CC1"
  Property Measured: "PAM1032/KPC-2 Biapenem MPC64"
  Endpoint Value: 40
- Compound: "COc1ccc2c(c1C(=O)O)OB(O)C1(CO)CC21 (centres unmarked)"
  Property Measured: "PAM1032/KPC-2 Biapenem MPC64"
  Endpoint Value: 20

Please examine the following record next.
Note down PAM1032/KPC-2 Biapenem MPC64 recorded for "O=C(O)c1cccc2c1OB(O)[C@H]1C[C@@H]21"
5

* * *

Biological target: SHV-12 (Klebsiella pneumoniae, UniProt P0AD64, E235K/G234S/L31Q)
Sequence (P0AD64 22-286 L31Q/G234S/E235K): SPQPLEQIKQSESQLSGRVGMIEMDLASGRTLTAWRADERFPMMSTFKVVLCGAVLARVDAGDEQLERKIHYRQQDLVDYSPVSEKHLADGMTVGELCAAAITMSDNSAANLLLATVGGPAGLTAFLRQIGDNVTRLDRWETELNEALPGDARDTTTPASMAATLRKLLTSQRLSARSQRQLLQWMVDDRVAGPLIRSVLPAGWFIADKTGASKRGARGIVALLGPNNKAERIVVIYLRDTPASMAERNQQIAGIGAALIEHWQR
Assay: Inhibition of nitrocefin cleavage by purified SHV-12
Type: biochemical
Conditions: nitrocefin reporter substrate; 10 min preincubation at room temperature; read-out: Ki (SHV-12, NCF)
Listing of recorded Ki by entry.

Note down Ki recorded for O=C(O)c1c(F)ccc2c1OB(O)[C@@H]1C[C@H]21 [Compound 13]
< 100 nM

Note down Ki recorded for O=C(O)c1c(F)ccc2c1OB(O)[C@H]1C[C@@H]21 [Compound 12]
< 100 nM

Note down Ki recorded for O=C(O)c1cccc2c1OB(O)C1CC21 (stereo not drawn) [Compound 10]
< 100 nM

Note down Ki recorded for COc1ccc2c(c1C(=O)O)OB(O)C1C2[C@H]2C=C[C@@H]1C2 (stereo partly drawn) [Compound 6]
100 to 1000 nM

Note down Ki recorded for COc1ccc2c(c1C(=O)O)OB(O)C1C2[C@H]2CC[C@@H]1C2 (stereo partly drawn) [Compound 7]
100 to 1000 nM

Note down Ki recorded for COc1ccc2c(c1C(=O)O)OB(O)CC21CC1 [Compound 11]
< 100 nM

* * *

Molecular target: NDM-1 (Klebsiella pneumoniae, UniProt C7C422)
Sequence (C7C422 29-270, looked up, species assumed): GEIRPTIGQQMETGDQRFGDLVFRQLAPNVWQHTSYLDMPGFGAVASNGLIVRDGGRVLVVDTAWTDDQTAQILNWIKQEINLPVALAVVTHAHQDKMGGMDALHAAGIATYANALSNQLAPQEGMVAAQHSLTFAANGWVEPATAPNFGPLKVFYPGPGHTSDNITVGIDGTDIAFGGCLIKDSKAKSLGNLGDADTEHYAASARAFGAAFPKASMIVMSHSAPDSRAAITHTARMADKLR
Test: Inhibition of imipenem cleavage by purified NDM-1
Details: imipenem reporter substrate; 37° C.; read-out: Ki (NDM-1, IMI)
Property Measured: Ki

The cases that follow already have their Ki on record.
- Molecule: "COc1ccc2c(c1C(=O)O)OB(O)C1(CO)CC21 (centres unmarked)"
  Ki: "< 100 nM"
- Molecule: "O=C(O)c1c(OCCF)ccc2c1OB(O)C1CC21 (centres unmarked)"
  Ki: "< 100 nM"
- Molecule: "O=C(O)c1c(F)ccc2c1OB(O)CC21CC1"
  Ki: "100 to 1000 nM"

Note down Ki recorded for "O=C(O)c1cccc2c1OB(O)[C@@H]1C[C@H]21"
< 100 nM

Note down Ki recorded for COc1ccc2c(c1C(=O)O)OB(O)C1C2C1(F)F (centres unmarked)
100 to 1000 nM

* * *

Listing of recorded pKi by entry.
Biological target: NDM-1 (Klebsiella pneumoniae)
Assay: Inhibition of imipenem cleavage by purified NDM-1
Assay type: biochemical
Conditions: imipenem reporter substrate; 37° C.; read-out: Ki (NDM-1, IMI)
pKi: −log10 of the molar value.

The cases that follow already have their pKi on record.
- Molecule: "COc1ccc2c(c1C(=O)O)OB(O)CC21CC1 [Compound 11]"
  pKi: "> 7.00"
- Molecule: "O=C(O)c1cccc2c1OB(O)[C@H]1C[C@@H]21 [Compound 18]"
  pKi: "> 7.00"
- Molecule: "COc1ccc2c(c1C(=O)O)OB(O)C1C2[C@H]2C=C[C@@H]1C2 (stereo partly drawn) [Compound 6]"
  pKi: "< 6.00"
- Molecule: "COc1ccc2c(c1C(=O)O)OB(O)[C@@H]1COC[C@H]21 [Compound 23]"
  pKi: "> 7.00"
- Molecule: "COc1ccc2c(c1C(=O)O)OB(O)C1CC21 (stereo not drawn) [Compound 1]"
  pKi: "> 7.00"
- Molecule: "COc1ccc2c(c1C(=O)O)OB(O)C1=C2COC1 [Compound 24]"
  pKi: "6.00 to 7.00"
- Molecule: "C[C@]1(Cn2ccnn2)[C@H](C(=O)O)N2C(=O)C[C@H]2S1(=O)=O [Tazobactam, reference compound]"
  pKi: "< 6.00"
- Molecule: "COc1ccc2c(c1C(=O)O)OB(O)[C@H]1C[C@@H]21 [Compound 2]"
  pKi: "6.00 to 7.00"

Please examine the following record next.
Note down pKi recorded for O=C(O)c1c(F)c(F)cc2c1OB(O)C1CC21 (stereo not drawn) [Compound 19]
6.00 to 7.00
